Hi there, I'd appreciate the recorded ∼krel of hydrolysis at C2′ for every entry that follows.
- Experiment: silicate ester hydrolysis rate study by 1H NMR
- Format: physicochemical
- Recorded Conditions: C2′ silicate; kobs relative to that of 1d
Just the number, please, no unit after it.

The recorded ∼krel of hydrolysis at C2′ for CC(=O)O[C@H]1C(=O)[C@@]2(C)[C@H]([C@H](OC(=O)c3ccccc3)[C@]3(O)C[C@H](OC(=O)[C@H](O[Si](OC(C)C)(OC(C)C)OC(C)C)[C@@H](NC(=O)c4ccccc4)c4ccccc4)C(C)=C1C3(C)C)[C@]1(OC(C)=O)CO[C@@H]1C[C@@H]2O [1c, 2′-O-[(Triisopropoxy)silyl]paclitaxel] is 570

The recorded ∼krel of hydrolysis at C2′ for CCO[Si](OCC)(OCC)O[C@H]1C[C@H]2OC[C@@]2(OC(C)=O)[C@H]2[C@H](OC(=O)c3ccccc3)[C@]3(O)C[C@H](OC(=O)[C@H](O[Si](OCC)(OCC)OCC)[C@@H](NC(=O)c4ccccc4)c4ccccc4)C(C)=C([C@@H](OC(C)=O)C(=O)[C@]12C)C3(C)C is 15000

The recorded ∼krel of hydrolysis at C2′ for CCCCCCCCO[Si](OCCCCCCCC)(OCCCCCCCC)O[C@H]1C[C@H]2OC[C@@]2(OC(C)=O)[C@H]2[C@H](OC(=O)c3ccccc3)[C@]3(O)C[C@H](OC(=O)[C@H](O[Si](OCCCCCCCC)(OCCCCCCCC)OCCCCCCCC)[C@@H](NC(=O)c4ccccc4)c4ccccc4)C(C)=C([C@@H](OC(C)=O)C(=O)[C@]12C)C3(C)C is 3800
